The reported measurements were obtained from patent US20150147342A1.

Property: pKd; scope: individual binders
biological target: T1, Dimeric fibrinogen-like domain of human Ang-2 conjugated to human IgG1 (human); assay: SPR, hIgG1 antibody captured, room temp
T1 construct: also called Dimeric Human Ang-2FD; Human Ang-2FD-hFc
T1 sequence (chain, as listed by the source limits assumed): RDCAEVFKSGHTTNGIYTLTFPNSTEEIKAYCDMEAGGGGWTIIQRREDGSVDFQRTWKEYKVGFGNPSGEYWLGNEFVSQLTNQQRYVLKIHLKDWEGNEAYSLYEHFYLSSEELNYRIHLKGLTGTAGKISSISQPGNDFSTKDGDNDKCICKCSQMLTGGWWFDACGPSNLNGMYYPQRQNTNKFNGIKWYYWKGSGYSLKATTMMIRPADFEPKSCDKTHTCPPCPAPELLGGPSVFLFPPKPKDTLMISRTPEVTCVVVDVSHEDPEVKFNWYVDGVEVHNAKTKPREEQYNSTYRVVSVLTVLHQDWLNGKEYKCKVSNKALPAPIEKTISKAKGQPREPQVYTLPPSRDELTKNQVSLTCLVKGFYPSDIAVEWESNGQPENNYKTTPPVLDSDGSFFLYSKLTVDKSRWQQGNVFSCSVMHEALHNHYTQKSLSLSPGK
pKd: −log10 of the molar value.
Experimental Readout: pKd

binder="H1H706P (antibody, V domains shown) VH: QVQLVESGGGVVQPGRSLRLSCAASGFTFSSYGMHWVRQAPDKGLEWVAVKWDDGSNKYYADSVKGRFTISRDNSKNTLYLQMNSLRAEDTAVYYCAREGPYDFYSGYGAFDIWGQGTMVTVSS VL: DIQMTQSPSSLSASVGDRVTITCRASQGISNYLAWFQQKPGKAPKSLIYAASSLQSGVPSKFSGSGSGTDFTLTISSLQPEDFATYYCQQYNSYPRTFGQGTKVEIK" value_observed=9.70
binder="H1H743N (antibody, V domains shown) VH: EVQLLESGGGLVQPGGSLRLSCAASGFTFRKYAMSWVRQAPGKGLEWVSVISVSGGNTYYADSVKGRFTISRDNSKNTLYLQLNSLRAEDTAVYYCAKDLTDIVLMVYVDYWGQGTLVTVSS VL: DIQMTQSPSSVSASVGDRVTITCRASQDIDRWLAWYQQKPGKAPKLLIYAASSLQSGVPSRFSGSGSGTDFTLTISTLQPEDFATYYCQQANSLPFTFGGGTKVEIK" value_observed=10.05
binder="H1H690P (antibody, V domains shown) VH: EVQLVESGGGLVQPGESLRLSCAASGFTFSSYAMSWVRQGPGKGLEWVSSITGSGDTTYYADSVKGRFTISRDNSKNTLYLHMNSLRAEDTAVYYCAKDFLDYSTYLAFDLWGQGTMVTVSS VL: EIVLTQSPATLSLSPGERATLSCRASQSVSSYLTWYQQKPGQAPRLLSYDASNRATGIPARFSGSGSGTDFTLTISSLEPEDFAVYYCQQRSNWPLTFGGGTKVEIK" value_observed=10.10
